Reported protein stability index is given for each of the following variants.
B1: DYRK1B (parent)
chain: KKVLNHGYDDDNHDYIVRSGERWL

Variants of: B1
Test: protein stability index of a GFP-peptide fusion (GPS, HEK-293T) (PSI 1-6); higher = more stable;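 note: lentivirally expressed fusions sorted by FACS into six bins by GFP to DsRed ratio, PSI derived from sequencing read proportions per bin multiplied by bin number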
Conditions: c terminus: a fixed tail appended
Would you mind answering with just the numeric figure?

Short answer for KKVLNHGYDDDNHDFIVRSGERWL [Y15F] : protein stability index was 3.09

Reported protein stability index of KKTLNHGYDDDNHDYIVRSGERWL [V3T] : 3

The measured protein stability index associated with KKVLNHGYDDDNHDYIVASGERWL [R18A] reads 3
